target: human TRPA1 (Homo sapiens, UniProt O75762, K186N/R3C/R58T); construct: expressed in transfected cells; pcDNA3 control cells; assay: Intracellular calcium (Fluo-4, FLIPR) activation of TRPA1 cells by GRAS compounds; assay type: cell-based; conditions: Table 1(e); 1 mM; relative to AITC 30 μM; read-out: A1 activation, % of agonist value
Sequence (O75762 whole entry R3C/R58T/K186N): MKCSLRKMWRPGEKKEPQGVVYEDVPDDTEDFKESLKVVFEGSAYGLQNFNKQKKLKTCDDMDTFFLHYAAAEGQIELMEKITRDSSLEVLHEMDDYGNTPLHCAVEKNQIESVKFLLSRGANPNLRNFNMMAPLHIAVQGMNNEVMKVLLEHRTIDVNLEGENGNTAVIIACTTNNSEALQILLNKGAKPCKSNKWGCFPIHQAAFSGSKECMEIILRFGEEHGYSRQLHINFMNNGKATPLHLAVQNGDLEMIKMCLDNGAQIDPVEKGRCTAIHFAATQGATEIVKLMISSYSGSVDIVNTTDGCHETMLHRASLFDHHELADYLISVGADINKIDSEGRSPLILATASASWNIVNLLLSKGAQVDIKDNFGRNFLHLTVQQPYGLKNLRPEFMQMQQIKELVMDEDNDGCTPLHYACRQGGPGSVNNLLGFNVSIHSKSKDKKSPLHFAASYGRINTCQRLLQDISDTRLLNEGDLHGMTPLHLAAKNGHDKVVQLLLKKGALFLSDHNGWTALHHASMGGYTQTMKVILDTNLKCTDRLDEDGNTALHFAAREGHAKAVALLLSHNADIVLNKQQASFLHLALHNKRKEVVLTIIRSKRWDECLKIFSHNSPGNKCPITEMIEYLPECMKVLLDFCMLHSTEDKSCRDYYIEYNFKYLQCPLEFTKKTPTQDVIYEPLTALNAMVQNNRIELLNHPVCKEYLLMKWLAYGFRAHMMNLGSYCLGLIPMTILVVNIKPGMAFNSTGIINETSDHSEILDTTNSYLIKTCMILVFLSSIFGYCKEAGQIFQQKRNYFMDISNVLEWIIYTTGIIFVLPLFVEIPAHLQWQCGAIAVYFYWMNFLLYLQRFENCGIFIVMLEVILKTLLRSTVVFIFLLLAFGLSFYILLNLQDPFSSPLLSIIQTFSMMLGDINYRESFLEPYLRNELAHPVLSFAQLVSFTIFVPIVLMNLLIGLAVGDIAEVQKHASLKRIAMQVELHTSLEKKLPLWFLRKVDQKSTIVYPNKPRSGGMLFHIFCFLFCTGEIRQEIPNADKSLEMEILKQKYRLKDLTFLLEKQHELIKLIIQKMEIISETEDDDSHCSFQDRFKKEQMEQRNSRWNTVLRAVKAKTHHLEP
Everything with activation at 1000 µM lower than 40% is Not satisfied; everything else, including exactly 40%, is Satisfied.

Would you please look over these solved cases?
compound: CC(C)N=C=S [Isopropyl isothiocyanate]
target-under-test: human TRPA1 (Homo sapiens, UniProt O75762, K186N/R3C/R58T)
class-name: Satisfied
//
compound: COc1ccc(C=C(C)C=O)cc1
target-under-test: human TRPA1 (Homo sapiens, UniProt O75762, K186N/R3C/R58T)
class-name: Satisfied
//
compound: C=CCCCN=C=S
target-under-test: human TRPA1 (Homo sapiens, UniProt O75762, K186N/R3C/R58T)
class-name: Satisfied
//
compound: O=C(c1ccccc1)C(O)c1ccccc1 (stereo not drawn)
target-under-test: human TRPA1 (Homo sapiens, UniProt O75762, K186N/R3C/R58T)
class-name: Not satisfied
//
compound: CC(=O)c1ccc(C)cc1C
target-under-test: human TRPA1 (Homo sapiens, UniProt O75762, K186N/R3C/R58T)
class-name: Not satisfied

In: Hi, just wondering whether CC(=O)OCc1ccc(C)cc1 [4-Methylbenzyl acetate] shows activation at 1000 µM of 40% or higher.
Out: Satisfied

In: Hi, just wondering whether C/C=C/C=C/C(=O)OC [Methyl sorbate] shows activation at 1000 µM of 40% or higher.
Out: Satisfied

====

test system: TRPA1V1; assay: Intracellular calcium (Fluo-4, FLIPR) activation of TRPA1V1 cells (co-expressing TRPA1 and TRPV1) by GRAS compounds; assay type: cell-based, human; conditions: Table 1(c); 1 mM; relative to AITC 30 μM
endpoint: A1V1 activation, % of agonist value

Some entries whose results are on file:
compound: CCCCCC=CC(=O)O
target-under-test: TRPA1V1
A1V1 activation, % of agonist value: 61.77%
//
compound: Cc1c(C(=O)O)c(O)cc2c1C(=O)c1c(O)c(C3O[C@H](CO)[C@@H](O)[C@H](O)[C@H]3O)c(O)c(O)c1C2=O (stereo in doubt)
target-under-test: TRPA1V1
A1V1 activation, % of agonist value: 61.54%

In: For the compound CCOC(=O)c1ccccc1 [Ethyl benzoate] , give its reported A1V1 activation, % of agonist value.
Out: 60%

====

system: TRPA1V1; experiment: Intracellular calcium (Fluo-4, FLIPR) activation of TRPA1V1 cells (co-expressing TRPA1 and TRPV1) by GRAS compounds; format: cell-based, human; conditions: Table 1(a); 1 mM; relative to AITC 30 μM; average of three plates
Everything with A1V1 activation, % of agonist value lower than 90% is condition not met; everything else, including exactly 90%, is condition met.

Would you please look over these solved cases?
molecule: CCCCC=CC(C)=O [3-Octen-2-one]
target-under-test: TRPA1V1
class-name: condition not met

molecule: CCCCC/C=C/CO [Trans-2-Octen-1-ol]
target-under-test: TRPA1V1
class-name: condition met

molecule: CCOCc1ccc(O)c(OC)c1 [Vanillyl ethyl ether]
target-under-test: TRPA1V1
class-name: condition not met

molecule: CC(C)C(C=O)c1ccccc1 (centres unmarked) [3-Methyl-2-Phenylbutyraldehyde]
target-under-test: TRPA1V1
class-name: condition met

molecule: O=C(O)CC1CCCCC1 [Cyclohexaneacetic acid]
target-under-test: TRPA1V1
class-name: condition not met

molecule: CCCC(=O)OC/C=C(\C)CCC=C(C)C [Geranyl butyrate]
target-under-test: TRPA1V1
class-name: condition not met

Now take the following molecule into account.
In: Hi, just wondering whether CC1=C(O)C(=O)CO1 [4-Hydroxy-5-methyl-3-furanone] shows A1V1 activation, % of agonist value of 90% or higher.
Out: condition not met

====

Task for the reader: assign each of the following compounds its reported A1V1 activation, % of agonist value.
tested on: TRPA1V1; experiment: Intracellular calcium (Fluo-4, FLIPR) activation of TRPA1V1 cells (co-expressing TRPA1 and TRPV1) by GRAS compounds; type: cell-based, human; settings: Table 1(c); 1 mM; relative to AITC 30 μM;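 note: HEK293 cells co-expressing TRPA1 and TRPV1, fluorescence read at 488/514 nm after baseline subtraction, recorded every 2 s over 10 min, ionomycin 10 µM and buffer as controls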
Counter-ions that a name gives are not always drawn.
Numbers only, in %.

Some entries whose results are on file:
compound: CCC(=O)Oc1c(C)occc1=O [Maltol propionate]
target-under-test: TRPA1V1
endpoint: A1V1 activation, % of agonist value
display-unit: %
assay-value: 81.97
//
compound: CCC(=O)OCCOc1ccccc1 [Phenoxyethyl propionate]
target-under-test: TRPA1V1
endpoint: A1V1 activation, % of agonist value
display-unit: %
assay-value: 79.34
//
compound: CC=CC=CCO
target-under-test: TRPA1V1
endpoint: A1V1 activation, % of agonist value
display-unit: %
assay-value: 78.68

Below: the item to evaluate.
In: For the compound COc1ccc(COC=O)cc1 [Anisyl formate] , give its reported A1V1 activation, % of agonist value.
Out: 78.2

====

target: human TRPA1 (Homo sapiens, UniProt O75762, K186N/R3C/R58T); construct: expressed in transfected cells; pcDNA3 control cells; assay: Intracellular calcium (Fluo-4, FLIPR) activation of TRPA1 cells by GRAS compounds; format: cell-based; conditions: Table 1(a); 1 mM; relative to AITC 30 μM; average of three plates; read-out: A1 activation, % of agonist value
Task for the reader: assign each of the following compounds its reported activation at 1000 µM.
Give bare numbers, in %.

Some entries whose results are on file:
compound: Cc1ccc(C)c(O)c1C [2,3,6-Trimethylphenol]
target-under-test: human TRPA1 (Homo sapiens, UniProt O75762, K186N/R3C/R58T)
display-unit: %
assay-value: 90

compound: CCCCc1ccco1 [2-Butylfuran]
target-under-test: human TRPA1 (Homo sapiens, UniProt O75762, K186N/R3C/R58T)
display-unit: %
assay-value: 68.5

compound: CCC(S)C(C)=O (stereo not drawn) [3-Mercapto-2-pentanone]
target-under-test: human TRPA1 (Homo sapiens, UniProt O75762, K186N/R3C/R58T)
display-unit: %
assay-value: 92

compound: CC(=O)C(=O)c1ccccc1 [1-Phenyl-1,2-propanedione]
target-under-test: human TRPA1 (Homo sapiens, UniProt O75762, K186N/R3C/R58T)
display-unit: %
assay-value: 98.6

compound: C=C(C)[C@@H]1CC=C(CO)CC1 [Perillyl alcohol]
target-under-test: human TRPA1 (Homo sapiens, UniProt O75762, K186N/R3C/R58T)
display-unit: %
assay-value: 82

Each compound below has a recorded value; state its activation at 1000 µM.
1. C=Cc1ccc(O)c(OC)c1 [2-Methoxy-4-vinylphenol]
2. O=C(O)CC1CCCCC1 [Cyclohexaneacetic acid]
3. CC/C=C\C/C=C\C/C=C\CCCCCCCC(=O)OC [Methyl linolenate]
4. CCCCCCCCCCCCCCCC(=O)OC/C=C(C)/C=C/C=C(C)/C=C/C1=C(C)CCCC1(C)C [Retinol palmitate]
5. C=CC(=O)CCCCC [1-Octen-3-one]
6. C=CCSSSCC=C [Allyl-trisulfide]
7. CCCc1ccccc1O [2-Propylphenol]
8. CCOC(=O)C(O)Cc1ccccc1 (stereo not drawn) [Ethyl 2-hydroxy-3-phenylpropanoate]

Out:
[74.8, 20.6, 108, 76.4, 118, 83.5, 126, 95.6]

Each compound below has a recorded value; state its activation at 1000 µM.
1. CCCC(=O)OC/C=C(\C)CCC=C(C)C [Geranyl butyrate]
2. CCCCOC(=O)c1ccc(O)cc1 [Butylparaben, Butyl 4-hydroxybenzoate]

Out:
1. 76.9
2. 105

====

target: human TRPA1 (Homo sapiens, UniProt O75762, K186N/R3C/R58T); construct: expressed in transfected cells; pcDNA3 control cells; assay: Intracellular calcium (Fluo-4, FLIPR) activation of TRPA1 cells by GRAS compounds; format: cell-based; conditions: Table 1(c); 1 mM; relative to AITC 30 μM
Task for the reader: assign each of the following molecules its reported A1 activation, % of agonist value.
Numbers only, in %.

molecule: CC(S)CS (stereo not shown) [1,2-Propanedithiol]
A1 activation, % of agonist value [%]: 66

Each molecule below has a recorded value; state its A1 activation, % of agonist value.
1. CCCCCCCC/C=C/C=O [(2E)-Undecenal]
2. CC1=CC(C)C(C=O)CC1 (stereo not shown) [Trivertal]
3. CC(=O)OCc1ccccc1C [O-Methylbenzyl acetate]

Out:
[59.6, 35.43, 87.22]

====

Task for the reader: assign each of the following molecules its reported activation at 1000 µM.
biological target: human TRPA1 (Homo sapiens, UniProt O75762, K186N/R3C/R58T); construct: expressed in transfected cells; pcDNA3 control cells; experiment: Intracellular calcium (Fluo-4, FLIPR) activation of TRPA1 cells by GRAS compounds; assay type: cell-based; settings: Table 1(c); 1 mM; relative to AITC 30 μM; read-out: A1 activation, % of agonist value;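 note: TRPA1-expressing cells, fluorescence read on a FLIPR Tetra (ex 488 nm, em 514 nm) every 2 s for 10 min after compound addition, baseline subtracted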
Numbers only, in %.

Each molecule below has a recorded value; state its activation at 1000 µM.
1. CCCC/C=C/C=O [(E)-2-Heptenal]
2. Cc1c[nH]c2ccccc12
3. COc1ccc(C=O)cc1OC

Out:
1: 112; 2: 116; 3: 73.8

In: For the molecule CC/C=C\CC/C=C/C(OCC)OCC [2,6-Nonadiene, 1,1-diethoxy-, (E,Z)-] , give its reported activation at 1000 µM.
Out: 89.3

Measured values drawn from patent US9427415B2 for this set.
